- TGT: FRMPD3, Q5JV73
- Sequence (Q5JV73 12-100): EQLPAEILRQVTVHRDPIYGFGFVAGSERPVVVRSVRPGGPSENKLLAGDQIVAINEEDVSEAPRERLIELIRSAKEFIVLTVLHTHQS
- EXPERIMENT: holdup assay
- Parameters: key: below the threshold = too weak to quantify, mostly under pKd 3.1 to 4
- MEASUREMENT_CONTEXT: plain residues with an end cap or a label only (N-terminal biotin on a linker: ado-ado)
METRIC_NAME: pKd

1. SGDGKTSVWI [GJC1, P36383]
below the threshold
2. RDYTQSSSSL [GRM5, P41594]
below the threshold
3. TKDKVQETQI [LRRC4, Q9HBW1]
below the threshold
4. LLQEEWETVM [PTH1R, Q03431]
below the threshold
